Entry source: ChEMBL document CHEMBL4041509

# Target System: ATP-dependent translocase ABCB1 (Homo sapiens)
# Sequence (P08183 whole entry): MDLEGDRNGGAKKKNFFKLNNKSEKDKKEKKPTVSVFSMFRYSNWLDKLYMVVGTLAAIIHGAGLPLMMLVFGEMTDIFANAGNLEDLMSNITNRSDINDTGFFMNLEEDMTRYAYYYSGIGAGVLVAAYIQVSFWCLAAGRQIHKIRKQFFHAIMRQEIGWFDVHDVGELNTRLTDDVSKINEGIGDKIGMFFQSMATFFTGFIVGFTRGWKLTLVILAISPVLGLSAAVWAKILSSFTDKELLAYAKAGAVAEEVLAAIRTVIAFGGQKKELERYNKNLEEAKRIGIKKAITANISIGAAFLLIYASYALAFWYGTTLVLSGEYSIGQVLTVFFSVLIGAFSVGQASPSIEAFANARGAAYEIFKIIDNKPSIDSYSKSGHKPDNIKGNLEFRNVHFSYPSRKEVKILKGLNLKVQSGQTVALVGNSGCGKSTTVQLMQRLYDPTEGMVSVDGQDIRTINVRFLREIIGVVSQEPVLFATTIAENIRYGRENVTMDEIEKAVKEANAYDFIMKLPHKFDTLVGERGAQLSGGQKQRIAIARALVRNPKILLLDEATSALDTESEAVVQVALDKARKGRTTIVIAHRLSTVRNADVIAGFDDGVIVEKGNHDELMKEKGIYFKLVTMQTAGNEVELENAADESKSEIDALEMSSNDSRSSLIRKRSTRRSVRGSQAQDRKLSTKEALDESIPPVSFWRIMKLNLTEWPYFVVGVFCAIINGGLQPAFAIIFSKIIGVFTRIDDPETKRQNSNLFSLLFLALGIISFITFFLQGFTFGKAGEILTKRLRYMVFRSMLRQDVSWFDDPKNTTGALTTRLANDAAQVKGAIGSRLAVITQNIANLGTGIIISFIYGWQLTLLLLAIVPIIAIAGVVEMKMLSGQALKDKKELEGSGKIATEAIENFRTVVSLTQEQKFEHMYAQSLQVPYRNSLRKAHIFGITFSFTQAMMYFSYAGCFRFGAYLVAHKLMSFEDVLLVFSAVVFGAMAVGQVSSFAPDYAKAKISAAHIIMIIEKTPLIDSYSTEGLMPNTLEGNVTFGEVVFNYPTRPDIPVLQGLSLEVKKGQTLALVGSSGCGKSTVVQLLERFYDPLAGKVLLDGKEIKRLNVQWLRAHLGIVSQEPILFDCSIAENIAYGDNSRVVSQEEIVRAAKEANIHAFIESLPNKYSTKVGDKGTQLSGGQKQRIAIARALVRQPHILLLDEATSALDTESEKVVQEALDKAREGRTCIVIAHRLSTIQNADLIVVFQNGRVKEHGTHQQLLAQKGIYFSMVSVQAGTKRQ
# Run Description: Inhibition of ABCB1 (unknown origin) expressed in Flp-In-293 cells assessed as increase in calcein-AM uptake at 10 uM preincubated for 30 mins followed by calcein-AM addition measured after 30 mins by fluorescence spectrometric method relative to control
# Format: cell-based
# Run Conditions: 0.5 h
Parameter Measured: fold change (FC)
Form rule: numeric answer, no unit written next to it.

Prompt: In one line, give reported fold change (FC) of the entry CCN(CC)CCOc1cc(-c2ccc(OC)c(OC)c2)cc2oc(N)c(-c3cccs3)c12 .
Response: 11.34

Prompt: Provide fold change (FC) value for the following molecule: COc1ccc(-c2cc(OCc3ccncc3)c3c(-c4cccs4)c(N)oc3c2)cc1OC
Response: 7.79
